Numbers sourced from ChEMBL document CHEMBL3414454.

system: Trypanosoma cruzi; experiment: Anti-trypanosomal activity against Trypanosoma cruzi Bug 2149 cl10 epimastigote forms assessed as inhibition of parasite growth after 72 hrs by microplate reader based assay; assay type: functional, organism-based; conditions: Trypanosoma cruzi, Bug 2149 cl10, CL1-0, 72 h
Value type: IC50 (µM)

Examples from the recorded data:
- Compound: "CC1CS(=O)(=O)CCN1/N=C/c1ccc([N+](=O)[O-])o1 (stereo not given)"
  Unit of measure: "µM"
  IC50: 7.32
- Compound: "O=C(N/N=C/c1ccc([N+](=O)[O-])o1)c1ccccc1Oc1ccccc1"
  Unit of measure: "µM"
  IC50: 12.2
- Compound: "CC(C)(C)c1ccc(C(=O)N/N=C/c2ccc([N+](=O)[O-])o2)cc1"
  Unit of measure: "µM"
  IC50: 13.7

[A] CCCCNc1ccc(C(=O)N/N=C/c2ccc([N+](=O)[O-])o2)cc1
[B] O=C(Cc1ccccc1)N/N=C/c1ccc([N+](=O)[O-])o1
Kindly compare A with B and tell me which has the lower IC50 figure. Response format: the label of the selected entry.
A

====

The compounds listed here are annotated with their selectivity ratio.
assay: Selectivity index, ratio of IC50 for human LL24 cells to IC50 for Trypanosoma cruzi Silvio X10 cl1 epimastigote forms; assay type: toxicity, cell-based; conditions: read-out: Ratio IC50

Use the examples below as a reference point.
- Compound: "O=C(N/N=C/c1ccc([N+](=O)[O-])o1)c1ccc(Cl)cc1"
  selectivity ratio: 9.36
- Compound: "CC(C)(C)c1ccc(C(=O)N/N=C/c2ccc([N+](=O)[O-])o2)cc1"
  selectivity ratio: "> 15"
- Compound: "CC(C)(C)OC(=O)N/N=C/c1ccc([N+](=O)[O-])o1"
  selectivity ratio: "> 14"
- Compound: "CC(=O)N/N=C/c1ccc([N+](=O)[O-])o1 [NIHYDRAZONE]"
  selectivity ratio: "> 7"
- Compound: "O=C(N/N=C/c1ccc([N+](=O)[O-])o1)C1CCCCC1"
  selectivity ratio: "> 15"
- Compound: "CC1CS(=O)(=O)CCN1/N=C/c1ccc([N+](=O)[O-])o1 (stereo not given)"
  selectivity ratio: "> 33"

As a next step, examine the compound that follows.
Entry under test: CN(C)c1ccc(C(=O)N/N=C/c2ccc([N+](=O)[O-])o2)cc1 . Its selectivity ratio was > 2

====

test system: Trypanosoma cruzi; test: Anti-trypanosomal activity against Trypanosoma cruzi Bug 2149 cl10 epimastigote forms assessed as inhibition of parasite growth after 72 hrs by microplate reader based assay; format: functional, organism-based
Value type: log1/IC50

- Molecule: "O=C(N/N=C/c1ccc([N+](=O)[O-])o1)c1ccc(Cl)cc1"
  Recorded result: 4.84
- Molecule: "O=C(N/N=C/c1ccc([N+](=O)[O-])o1)c1ccccc1"
  Recorded result: 4.85
- Molecule: "CCCCCC(=O)N/N=C/c1ccc([N+](=O)[O-])o1"
  Recorded result: 4.91
- Molecule: "CCCCOc1ccc(C(=O)N/N=C/c2ccc([N+](=O)[O-])o2)cc1"
  Recorded result: 5.37
- Molecule: "N#Cc1ccc(C(=O)N/N=C/c2ccc([N+](=O)[O-])o2)cc1"
  Recorded result: 4.6
- Molecule: "CN(C)c1ccc(C(=O)N/N=C/c2ccc([N+](=O)[O-])o2)cc1"
  Recorded result: 4.33
- Molecule: "CCCCNc1ccc(C(=O)N/N=C/c2ccc([N+](=O)[O-])o2)cc1"
  Recorded result: 5.37
- Molecule: "O=C(N/N=C/c1ccc([N+](=O)[O-])o1)c1ccc(O)cc1 [NIFUROXAZIDE]"
  Recorded result: 3.52
- Molecule: "CC(C)(C)c1ccc(C(=O)N/N=C/c2ccc([N+](=O)[O-])o2)cc1"
  Recorded result: 4.86
- Molecule: "CCCc1ccc(C(=O)N/N=C/c2ccc([N+](=O)[O-])o2)cc1"
  Recorded result: 5.01
- Molecule: "CCCCc1ccc(C(=O)N/N=C/c2ccc([N+](=O)[O-])o2)cc1"
  Recorded result: 5.36
- Molecule: "O=C(N/N=C/c1ccc([N+](=O)[O-])o1)C1CCCCC1"
  Recorded result: 4.89
- Molecule: "CCCCCCCC(=O)N/N=C/c1ccc([N+](=O)[O-])o1"
  Recorded result: 4.84
- Molecule: "O=C(N/N=C/c1ccc([N+](=O)[O-])o1)c1ccccc1Oc1ccccc1"
  Recorded result: 4.91
- Molecule: "CC(C)c1ccc(C(=O)N/N=C/c2ccc([N+](=O)[O-])o2)cc1"
  Recorded result: 5.04
- Molecule: "O=C(N/N=C/c1ccc([N+](=O)[O-])o1)c1ccc(-c2ccccc2)cc1"
  Recorded result: 5.74
- Molecule: "O=C(Cc1ccccc1)N/N=C/c1ccc([N+](=O)[O-])o1"
  Recorded result: 4.91
- Molecule: "CC(=O)N/N=C/c1ccc([N+](=O)[O-])o1 [NIHYDRAZONE]"
  Recorded result: 4.8
- Molecule: "O=C(N/N=C/c1ccc([N+](=O)[O-])o1)C1CCCC1"
  Recorded result: 4.84
- Molecule: "CC1CS(=O)(=O)CCN1/N=C/c1ccc([N+](=O)[O-])o1 (stereo not drawn)"
  Recorded result: 5.14
- Molecule: "CC(C)(C)OC(=O)N/N=C/c1ccc([N+](=O)[O-])o1"
  Recorded result: 4.91
- Molecule: "Cc1cccc(C(=O)N/N=C/c2ccc([N+](=O)[O-])o2)c1"
  Recorded result: 4.61
- Molecule: "CCCOc1ccc(C(=O)N/N=C/c2ccc([N+](=O)[O-])o2)cc1"
  Recorded result: 5.01

====

assay: Selectivity index, ratio of IC50 for human LL24 cells to IC50 for Trypanosoma cruzi Bug 2149 cl10; assay type: toxicity, cell-based; conditions: read-out: Ratio IC50
Value type: selectivity ratio

Example entries and their recorded answers appear below.
- Molecule: "CCCc1ccc(C(=O)N/N=C/c2ccc([N+](=O)[O-])o2)cc1"
  selectivity ratio: 9
- Molecule: "O=C(N/N=C/c1ccc([N+](=O)[O-])o1)c1ccc(Cl)cc1"
  selectivity ratio: 12.9

Just so you know, measured selectivity ratio for O=C(N/N=C/c1ccc([N+](=O)[O-])o1)C1CCCC1 came out at 4

According to the records, this molecule CC1CS(=O)(=O)CCN1/N=C/c1ccc([N+](=O)[O-])o1 (stereo not drawn) [NIFURTIMOX] displays selectivity ratio of > 27

selectivity ratio recorded for this molecule, O=C(N/N=C/c1ccc([N+](=O)[O-])o1)c1ccc(-c2ccccc2)cc1 , is > 110

selectivity ratio reading for CCCCCCCC(=O)N/N=C/c1ccc([N+](=O)[O-])o1 : 6

Input CN(C)c1ccc(C(=O)N/N=C/c2ccc([N+](=O)[O-])o2)cc1 . Output selectivity ratio: > 4

Kindly note the recorded selectivity ratio for CC(C)(C)c1ccc(C(=O)N/N=C/c2ccc([N+](=O)[O-])o2)cc1 , which is > 15

selectivity ratio for Cc1cccc(C(=O)N/N=C/c2ccc([N+](=O)[O-])o2)c1 is > 8

Measured selectivity ratio of O=C(N/N=C/c1ccc([N+](=O)[O-])o1)c1ccc(O)cc1 [NIFUROXAZIDE] : > 1

Entry CCCOc1ccc(C(=O)N/N=C/c2ccc([N+](=O)[O-])o2)cc1 ; selectivity ratio = > 21

Quick note, selectivity ratio for O=C(N/N=C/c1ccc([N+](=O)[O-])o1)c1ccccc1 landed at 12.5

The value of selectivity ratio measured for the molecule CC(C)c1ccc(C(=O)N/N=C/c2ccc([N+](=O)[O-])o2)cc1 turned out to be > 22

So, CC(=O)N/N=C/c1ccc([N+](=O)[O-])o1 [NIHYDRAZONE] ? Its selectivity ratio was > 13

Given item O=C(N/N=C/c1ccc([N+](=O)[O-])o1)C1CCCCC1 , the value recorded as its selectivity ratio is > 16

Quick note, selectivity ratio for CCCCCC(=O)N/N=C/c1ccc([N+](=O)[O-])o1 landed at 8

What the record says about CC(C)(C)OC(=O)N/N=C/c1ccc([N+](=O)[O-])o1 : selectivity ratio is > 16

====

system: Trypanosoma cruzi; assay: Anti-trypanosomal activity against Trypanosoma cruzi Bug 2149 cl10 epimastigote forms assessed as inhibition of parasite growth after 72 hrs by microplate reader based assay; format: functional, organism-based; conditions: Trypanosoma cruzi, Bug 2149 cl10, CL1-0, 72 h
pIC50: −log10 of the molar value.
Value type: pIC50

In the examples that follow, each entry is paired with its recorded pIC50.
- Molecular string: "CN(C)c1ccc(C(=O)N/N=C/c2ccc([N+](=O)[O-])o2)cc1"
  pIC50: 4.33
- Molecular string: "N#Cc1ccc(C(=O)N/N=C/c2ccc([N+](=O)[O-])o2)cc1"
  pIC50: 4.60
- Molecular string: "O=C(N/N=C/c1ccc([N+](=O)[O-])o1)C1CCCCC1"
  pIC50: 4.89

[A] CCCCOc1ccc(C(=O)N/N=C/c2ccc([N+](=O)[O-])o2)cc1
[B] CC(C)c1ccc(C(=O)N/N=C/c2ccc([N+](=O)[O-])o2)cc1
In the pair A and B , the larger recorded pIC50 belongs to which? Respond using the label that marks the chosen record.
A
(A: 5.37, B: 5.04)
